Please provide measured lowest effective concentration for the entries that follow.
# Tested on: Caenorhabditis elegans N2
# Assay name: lowest effective concentration for larval growth inhibition (size below effect threshold); higher = less potent
# Test conditions: exposure time 48 h

Solved entries:
CCNc1ccccc1 [N-Ethyl aniline]: > 200 µM
CCn1nc(C)c2c1C(=O)NCC(c1ccc(O)cc1)=N2: > 200 µM
O=C1OC(=O)C2C3C=CC(C3)C12 (stereo not given) [4,7-Methanoisobenzofuran-1,3-dione, 3A,4,7,7A-tetrahydro-]: > 200 µM
Clc1ccccc1Cl [1,2-Dichlorobenzene]: > 200 µM

Shifting focus to the molecule that follows.
-- ask Form field: lowest effective concentration recorded for O=C(O)C1=NN(c2ccc(S(=O)(=O)O)cc2)C(=O)C1N=Nc1ccc(S(=O)(=O)O)cc1 (stereo not given) [Tartrazine] with Caenorhabditis elegans N2 (enter value)
-- reply > 200 µM
